target: PASK (UniProt #Q96RG2; residues 879-1323) (Homo sapiens (Human), UniProt Q96RG2); test: PASK ATP Radiochemical Assay; settings: 33P-ATP radiochemical assay; read-out: IC50 Kinase Domain
Sequence (Q96RG2 879-1323): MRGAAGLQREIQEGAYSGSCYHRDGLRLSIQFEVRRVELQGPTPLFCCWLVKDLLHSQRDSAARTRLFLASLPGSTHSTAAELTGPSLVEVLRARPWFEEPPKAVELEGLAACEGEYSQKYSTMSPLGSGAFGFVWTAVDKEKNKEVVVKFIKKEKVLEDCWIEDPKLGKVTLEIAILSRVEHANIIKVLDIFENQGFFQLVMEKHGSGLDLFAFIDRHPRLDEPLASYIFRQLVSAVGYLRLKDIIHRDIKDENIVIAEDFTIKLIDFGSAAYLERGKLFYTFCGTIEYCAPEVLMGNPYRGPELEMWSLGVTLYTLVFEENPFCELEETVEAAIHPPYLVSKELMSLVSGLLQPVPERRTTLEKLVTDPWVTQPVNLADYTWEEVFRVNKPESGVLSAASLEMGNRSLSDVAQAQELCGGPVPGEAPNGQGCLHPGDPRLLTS
pIC50: −log10 of the molar value.
List of pIC50 values.

molecule	recorded-result
Cc1nn2c(=O)cc(-c3ccc4ncccc4c3)[nH]c2c1Cc1ccccc1 [Example 73]	≥ 5.00
NC(=O)c1cnn2c(=O)cc(-c3ccc4c(c3)OCCO4)[nH]c12 [Example 114]	≥ 5.00

stdin: Note pIC50 for the molecule shown: COc1ccc2c(c1)CCc1c-2[nH]c2c(-c3ccccn3)cnn2c1=O [Example 121]
stdout: ≥ 5.00

stdin: Note pIC50 for the molecule shown: O=c1cc(-c2ccc3occc3c2)[nH]c2c(-c3ccccc3)c(O)nn12 [Example 127]
stdout: ≥ 5.00

stdin: Note pIC50 for the molecule shown: COc1ccc(-c2cc(=O)n3ncc(-c4ccccn4)c3[nH]2)c(OC)c1 [Example 110]
stdout: ≥ 5.00

stdin: Note pIC50 for the molecule shown: O=c1cc(-c2ccc3c(c2)OCCO3)[nH]c2c(-c3ccccc3)c(C(F)(F)F)nn12 [Example 117]
stdout: ≥ 5.00

stdin: Note pIC50 for the molecule shown: Cc1nn2c(=O)cc(-c3ccc4c(c3)OCO4)[nH]c2c1Cc1ccc(Cl)cc1 [Example 76]
stdout: ≥ 5.00

stdin: Note pIC50 for the molecule shown: Cc1nn2c(=O)cc(-c3ccc4cc[nH]c4c3)[nH]c2c1Cc1ccccc1 [Example 74]
stdout: ≥ 5.00

stdin: Note pIC50 for the molecule shown: N#Cc1cnn2c(=O)cc(-c3ccc4c(c3)OCCO4)[nH]c12 [Example 113]
stdout: ≥ 5.00

// provenance: patent US10953012B2
